# maps each entry to its IC50
- TARGET_OF_ASSAY: Phosphatidylinositol 4,5-bisphosphate 3-kinase catalytic subunit alpha isoform (Homo sapiens, UniProt P42336)
- Sequence (P42336 whole entry, canonical isoform): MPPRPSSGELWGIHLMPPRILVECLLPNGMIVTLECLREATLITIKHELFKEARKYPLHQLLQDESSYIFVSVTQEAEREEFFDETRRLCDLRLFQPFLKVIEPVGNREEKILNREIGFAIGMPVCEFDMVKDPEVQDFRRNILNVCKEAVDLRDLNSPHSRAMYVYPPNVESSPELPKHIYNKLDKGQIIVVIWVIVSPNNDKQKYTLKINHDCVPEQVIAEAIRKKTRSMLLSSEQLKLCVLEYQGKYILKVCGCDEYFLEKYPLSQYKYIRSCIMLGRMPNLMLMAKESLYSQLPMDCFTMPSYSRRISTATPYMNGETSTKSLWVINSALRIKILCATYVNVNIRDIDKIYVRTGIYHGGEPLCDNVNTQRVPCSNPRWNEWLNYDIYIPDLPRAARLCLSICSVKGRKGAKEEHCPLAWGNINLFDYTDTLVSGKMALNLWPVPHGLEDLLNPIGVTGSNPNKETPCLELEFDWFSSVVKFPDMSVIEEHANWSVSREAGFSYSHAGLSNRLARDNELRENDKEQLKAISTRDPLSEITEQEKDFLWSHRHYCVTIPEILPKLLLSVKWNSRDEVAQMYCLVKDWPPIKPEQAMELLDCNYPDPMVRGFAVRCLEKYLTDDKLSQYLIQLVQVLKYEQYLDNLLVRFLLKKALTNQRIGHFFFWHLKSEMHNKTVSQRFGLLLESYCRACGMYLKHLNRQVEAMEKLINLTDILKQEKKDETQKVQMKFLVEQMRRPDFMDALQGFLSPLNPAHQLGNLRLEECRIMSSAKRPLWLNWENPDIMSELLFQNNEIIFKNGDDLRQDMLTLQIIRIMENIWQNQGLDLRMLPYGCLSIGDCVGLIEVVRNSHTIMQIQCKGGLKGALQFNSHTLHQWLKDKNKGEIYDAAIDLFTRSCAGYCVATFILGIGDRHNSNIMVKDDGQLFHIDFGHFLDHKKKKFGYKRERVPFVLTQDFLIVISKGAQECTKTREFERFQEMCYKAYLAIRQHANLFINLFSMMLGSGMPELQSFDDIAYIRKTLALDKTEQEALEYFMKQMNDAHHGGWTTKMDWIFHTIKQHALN
- RUN_DESCRIPTION: Inhibition of PI3Kalpha (unknown origin)

C[C@@H]1COCCN1c1nc(-c2cccc3[nH]ccc23)cc2nccn12 > 10 µM
CS(=O)(=O)Cn1cnc2c(N3CCOCC3)nc(-c3cccc4[nH]ccc34)cc21 > 10 µM
c1cc(-c2cc3nccn3c(N3CCOCC3)n2)c2cc[nH]c2c1 > 10 µM

Now for a further molecule.
Value of measured IC50 for the entry c1cc(-c2cc3c(ncn3CC3CC3)c(N3CCOCC3)n2)c2cc[nH]c2c1 : > 10 µM
